Molecular target: chemokine receptor 1 (CCR1) (UniProt P56482)
*: point of attachment. Nonanoyl = CCCCCCCCC(=O)*
assay_endpoint: EC50 (aequorin luminescence, CHO-K1 cells expressing CCR1) (nM)

Known EC50 (aequorin luminescence, CHO-K1 cells expressing CCR1) results, listed for orientation:
binder="HCC-1[8-74] (ligand) RGPYHPSECCFTYTTYKIPRQRIMDYYETNSQCSKPGIVFITKRGHSVCTNPSDKWVQDYIKDMKEN" quantitative_result=35.2
binder="HCC-1, residues 6-74 (ligand) SSRGPYHPSECCFTYTTYKIPRQRIMDYYETNSQCSKPGIVFITKRGHSVCTNPSDKWVQDYIKDMKEN" quantitative_result=262
binder="NNY-HCC-1[10-74] (nonanoyl-HCC-1[10-74]) (ligand, ends and bridges not checked) Nonanoyl-PYHPSECCFTYTTYKIPRQRIMDYYETNSQCSKPGIVFITKRGHSVCTNPSDKWVQDYIKDMKEN" quantitative_result=5.9

1: processed human chemokine PHC-1 (HCC-1[9-74]) (ligand) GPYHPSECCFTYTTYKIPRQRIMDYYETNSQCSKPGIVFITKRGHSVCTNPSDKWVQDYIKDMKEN
2: HCC-1[7-74] (ligand) SRGPYHPSECCFTYTTYKIPRQRIMDYYETNSQCSKPGIVFITKRGHSVCTNPSDKWVQDYIKDMKEN
3: HCC-1[10-74] (ligand) PYHPSECCFTYTTYKIPRQRIMDYYETNSQCSKPGIVFITKRGHSVCTNPSDKWVQDYIKDMKEN
4: HCC-1[11-74] (ligand) YHPSECCFTYTTYKIPRQRIMDYYETNSQCSKPGIVFITKRGHSVCTNPSDKWVQDYIKDMKEN
In: Falling order of EC50 (aequorin luminescence, CHO-K1 cells expressing CCR1), please. Labels, requested order.
Out: 2, 4, 3, 1
